# PROCEDURE DETAILS: Cytotoxicity against human HCT116 cells assessed as reduction in cell viability after 72 hrs by calcein AM staining based fluorescence assay
# Type: functional
# CONDITION LABEL: HCT-116, 72 h
// bucketize IC50: lower range = under 700 nM, middle range = from 700 nM up to 1000 nM, upper range = 1000 nM and over

Before answering, review these 5 worked examples.
- COMPOUND: "COc1ccc(CNc2nc(NCc3ccc(-c4ccccn4)cc3)c3[nH]nc(C(C)C)c3n2)cc1"
  GROUP LABEL: "upper range"
- COMPOUND: "CC(O)CNc1nc(NCc2ccc(-c3ccccn3)cc2)c2[nH]nc(C(C)C)c2n1 (centres undefined)"
  GROUP LABEL: "lower range"
- COMPOUND: "CSc1nc(NCc2ccc(-c3ccccn3)cc2)c2[nH]nc(C(C)C)c2n1"
  GROUP LABEL: "upper range"
- COMPOUND: "CC(C)c1n[nH]c2c(NCc3ccc(-c4ccccn4)cc3)nc(S(C)(=O)=O)nc12"
  GROUP LABEL: "upper range"
- COMPOUND: "CC(C)c1n[nH]c2c(NCc3ccc(-c4ccccn4)cc3)nc(NCC(C)(C)O)nc12"
  GROUP LABEL: "lower range"

Exercise: Class label required: CC(C)c1n[nH]c2c(NCc3ccc(-c4ccccn4)cc3)nc(NCC(O)CN)nc12 (centres undefined)
Key: middle range

Exercise: Cool, now CC(C)c1n[nH]c2c(NCc3ccc(-c4ccccn4)cc3)nc(N3CCSCC3)nc12
Key: middle range

Exercise: // repeat for CC(C)c1n[nH]c2c(NCc3ccc(-c4ccccn4)cc3)ncnc12 and report
Key: upper range

---

# TARGET OR SYSTEM: Cyclin-dependent kinase 4 (Homo sapiens)
# Sequence (P11802 whole entry): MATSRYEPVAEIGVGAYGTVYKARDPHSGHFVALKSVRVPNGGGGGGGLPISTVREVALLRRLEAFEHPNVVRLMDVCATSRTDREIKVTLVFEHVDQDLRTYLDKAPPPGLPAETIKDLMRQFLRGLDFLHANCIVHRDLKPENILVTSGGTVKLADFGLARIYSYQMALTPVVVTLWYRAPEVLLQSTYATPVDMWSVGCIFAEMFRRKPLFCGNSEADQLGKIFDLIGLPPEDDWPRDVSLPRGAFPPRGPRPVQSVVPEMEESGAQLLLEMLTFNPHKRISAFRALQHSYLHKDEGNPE
PROPERTY MEASURED: IC50

Exercise: Look at this molecule and give its reported IC50. CC(O)CNc1nc(NCc2ccc(-c3ccccn3)cc2)c2[nH]nc(C(C)C)c2n1 (stereo unspecified)
Key: > 2000 nM

---

# TARGET OR SYSTEM: Cyclin-dependent kinase 2/cyclin E1 (Homo sapiens, UniProt P24941)
# PROCEDURE DETAILS: Inhibition of CDK2/Cyclin E (unknown origin) expressed in sf9 cells using histone H1 as substrate in presence of [gamma33P]-ATP
Mark condition met only when IC50 stays strictly below 50 nM. Values equal to the cut-off are condition not met.

- MOLECULE: "CC(C)c1n[nH]c2c(NCc3ccc(-c4ccccn4)cc3)nc(NCC(O)CO)nc12 (stereo not given)"
  TARGET OR SYSTEM: "Cyclin-dependent kinase 2/cyclin E1 (Homo sapiens, UniProt P24941)"
  GROUP LABEL: "condition met"
- MOLECULE: "CC(C)c1n[nH]c2c(NCc3ccc(-c4ccccn4)cc3)ncnc12"
  TARGET OR SYSTEM: "Cyclin-dependent kinase 2/cyclin E1 (Homo sapiens, UniProt P24941)"
  GROUP LABEL: "condition not met"
- MOLECULE: "CC(C)c1n[nH]c2c(NCc3ccc(-c4ccccn4)cc3)nc(S(C)(=O)=O)nc12"
  TARGET OR SYSTEM: "Cyclin-dependent kinase 2/cyclin E1 (Homo sapiens, UniProt P24941)"
  GROUP LABEL: "condition not met"

Exercise: Please indicate whether the reported IC50 of CC(C)c1n[nH]c2c(NCc3ccc(-c4ccccn4)cc3)nc(N3CCCCC3CCO)nc12 (stereo not given) is strictly below 50 nM.
Key: condition met

Exercise: Please give the result for CCC(CO)Nc1nc(NCc2ccc(-c3ccccn3)cc2)c2[nH]nc(C(C)C)c2n1 (stereo not given) too.
Key: condition not met

Exercise: Query CC(C)c1n[nH]c2c(NCc3ccc(-c4ccccn4)cc3)nc(NCCN(C)C)nc12 next
Key: condition not met

Exercise: Next: CC(O)CNc1nc(NCc2ccc(-c3ccccn3)cc2)c2[nH]nc(C(C)C)c2n1 (stereo not given)
Key: condition met

Exercise: Same again, this time with CC(C)c1n[nH]c2c(NCc3ccc(-c4ccccn4)cc3)nc(N[C@@H]3CCCC[C@H]3N)nc12 (relative stereo)
Key: condition met

Exercise: Repeat with CC(C)c1n[nH]c2c(NCc3ccc(-c4ccccn4)cc3)nc(NCCO)nc12
Key: condition met

Exercise: Continue with CC(C)c1n[nH]c2c(NCc3ccc(-c4ccccn4)cc3)nc(N3CCN(CCO)CC3)nc12
Key: condition not met

Exercise: Likewise for CSc1nc(NCc2ccc(-c3ccccn3)cc2)c2[nH]nc(C(C)C)c2n1 ?
Key: condition met

Exercise: // query: CC(C)c1n[nH]c2c(NCc3ccc(-c4ccccn4)cc3)nc(N3CCSCC3)nc12
Key: condition not met

Exercise: Also, CC(C)c1n[nH]c2c(NCc3ccc(-c4ccccn4)cc3)nc(NCC(C)(C)O)nc12 please.
Key: condition met

Exercise: Similarly, CC(C)c1n[nH]c2c(NCc3ccc(-c4ccccn4)cc3)nc(NCCN)nc12 ?
Key: condition met

Exercise: // next record COc1ccc(CNc2nc(NCc3ccc(-c4ccccn4)cc3)c3[nH]nc(C(C)C)c3n2)cc1
Key: condition not met

Exercise: Field entry: CC(C)c1n[nH]c2c(NCc3ccc(-c4ccccn4)cc3)nc(N3CCOCC3)nc12
Key: condition met

Exercise: How about CC(C)c1n[nH]c2c(NCc3ccc(-c4ccccn4)cc3)nc(NCc3ccc(-c4ccccn4)cc3)nc12 ?
Key: condition not met

Exercise: Follow-up item: CC(C)c1n[nH]c2c(NCc3ccc(-c4ccccn4)cc3)nc(N[C@H]3CC[C@H](N)CC3)nc12
Key: condition not met

---

The next entries give measured pIC50 for Cyclin-dependent kinase 5 (Homo sapiens).
Reminder that pIC50 is minus the log10 of a molar concentration.

- MOLECULE: "CC(C)c1n[nH]c2c(NCc3ccc(-c4ccccn4)cc3)nc(N[C@@H]3CCCC[C@H]3N)nc12 (relative stereo)"
  TARGET OR SYSTEM: "Cyclin-dependent kinase 5 (Homo sapiens)"
  pIC50: 7.36
- MOLECULE: "CC(C)c1n[nH]c2c(NCc3ccc(-c4ccccn4)cc3)nc(NCc3ccc(-c4ccccn4)cc3)nc12"
  TARGET OR SYSTEM: "Cyclin-dependent kinase 5 (Homo sapiens)"
  pIC50: 5.44

Exercise: If you can, please state the reported pIC50 value of CC(C)c1n[nH]c2c(NCc3ccc(-c4ccccn4)cc3)nc(N3CCCCC3CCO)nc12 (stereo not given) .
Key: 7.43

Exercise: Another molecule to check: CC(C)c1n[nH]c2c(NCc3ccc(-c4ccccn4)cc3)nc(NCCO)nc12
Key: 7.31

Exercise: Now try CC(C)c1n[nH]c2c(NCc3ccc(-c4ccccn4)cc3)nc(NCCN)nc12 .
Key: 8.10

---

# PROCEDURE DETAILS: Cytotoxicity against human HCT116 cells assessed as reduction in cell viability after 72 hrs by calcein AM staining based fluorescence assay
# Type: functional
# CONDITION LABEL: HCT-116, 72 h
Listed compounds paired with reported IC50
State the answer as a number, implicitly in nM.

- COMPOUND: "CC(C)c1n[nH]c2c(NCc3ccc(-c4ccccn4)cc3)nc(NCCN(C)C)nc12"
  IC50 (nM): 390
- COMPOUND: "CC(C)c1n[nH]c2c(NCc3ccc(-c4ccccn4)cc3)nc(N3CCNCC3)nc12"
  IC50 (nM): 88
- COMPOUND: "CC[C@H](CO)Nc1nc(NCc2ccccc2)c2ncn(C(C)C)c2n1"
  IC50 (nM): 14400
- COMPOUND: "CC(C)c1n[nH]c2c(NCc3ccc(-c4ccccn4)cc3)nc(NCCN)nc12"
  IC50 (nM): 227

Exercise: Request the reported IC50 associated with CC(C)c1n[nH]c2c(NCc3ccc(-c4ccccn4)cc3)nc(N3CCCCC3CCO)nc12 (stereo not given)
Key: 142

---

# PROCEDURE DETAILS: Cytotoxicity against human HCT116 cells assessed as reduction in cell viability after 72 hrs by calcein AM staining based fluorescence assay
# Type: functional
# CONDITION LABEL: HCT-116, 72 h
PROPERTY MEASURED: log10 of IC50 (log10 of the value in nM)
Friendly reminder: values = log10 of IC50, unit nM.

In the examples that follow, each entry is paired with its recorded log10 of IC50.
- COMPOUND: "CC[C@H](CO)Nc1nc(NCc2ccc(-c3ccccn3)cc2)c2ncn(C(C)C)c2n1"
  PROPERTY MEASURED: "log10 of IC50"
  REPORTED: 2.54
- COMPOUND: "CC(C)c1n[nH]c2c(NCc3ccc(-c4ccccn4)cc3)nc(NCC(O)CO)nc12 (stereo not drawn)"
  PROPERTY MEASURED: "log10 of IC50"
  REPORTED: 1.94
- COMPOUND: "CC(C)c1n[nH]c2c(NCc3ccc(-c4ccccn4)cc3)nc(N[C@@H]3CCCC[C@H]3N)nc12 (relative stereo)"
  PROPERTY MEASURED: "log10 of IC50"
  REPORTED: 2.63
- COMPOUND: "CC(C)c1n[nH]c2c(NCc3ccc(-c4ccccn4)cc3)nc(NCc3ccc(-c4ccccn4)cc3)nc12"
  PROPERTY MEASURED: "log10 of IC50"
  REPORTED: 3.86
- COMPOUND: "CC(C)c1n[nH]c2c(NCc3ccc(-c4ccccn4)cc3)nc(NCCO)nc12"
  PROPERTY MEASURED: "log10 of IC50"
  REPORTED: 1.43

Exercise: What does the data say about its log10 of IC50? Entry: CCC(CO)Nc1nc(NCc2ccc(-c3ccccn3)cc2)c2[nH]nc(C(C)C)c2n1 (stereo not drawn)
Key: 2.04

Exercise: Please give the result for CC(C)c1n[nH]c2c(NCc3ccc(-c4ccccn4)cc3)nc(N3CCOCC3)nc12 too.
Key: 2.43

Exercise: Another compound: CC(C)c1n[nH]c2c(NCc3ccc(-c4ccccn4)cc3)nc(N3CCN(CCO)CC3)nc12
Key: 2.54
